# Assay summary: Body weight of the mice, carboplatin combination study
# Type: in vivo
# Experimental context: Day 18

| Compound | Mean body weight of the mice |
| --- | --- |
| N.N.O=C([O-])C1(C(=O)[O-])CCC1.[Pt+2] [carboplatin, reference compound] | 23.5 g |
